- ASSAY INFO: Cytotoxicity against human THLE cells assessed as ATP depletion after 4 hrs by CellTitre-Glo assay
- Type: functional, cell-based

{"columns": ["COMPOUND", "RELATION SIGN", "EC50 [µM]"],
 "data": [
  ["Cc1cc2nc3c(=O)[nH]c(=O)nc-3n(C[C@H](O)[C@H](O)[C@H](O)CO)c2cc1C [RIBOFLAVIN]", ">", 300],
  ["Cc1c2cc3c(ccc4ccccc43)oc-2nc(=O)c1C#N", ">", 300],
  ["C[n+]1cc2c3c(ccc2c2ccc4cc5c(cc4c21)OCO5)OCO3 [SANGUINARIUM]", "=", 1],
  ["Cn1nc(-c2ccc([N+](=O)[O-])cc2)nc2c(=O)n(C)c(=O)nc1-2", "=", 5.2],
  ["Cn1nc(-c2ccncc2)nc2c(=O)n(C)c(=O)nc1-2", "=", 11.7]
]}

====

Items are presented alongside their recorded pEC50.
- ASSAY INFO: Cytotoxicity against human THLE cells assessed as ATP depletion after 24 hrs by CellTitre-Glo assay
- Format: functional, cell-based
pEC50: −log10 of the molar value.
PROPERTY NAME: pEC50

{"columns": ["COMPOUND", "RELATION SIGN", "RESULT"],
 "data": [
  ["NC(=O)N1C(=O)/C(=C(\\O)c2ccc(Cl)s2)c2cc(Cl)ccc21", "=", 3.60],
  ["Cn1nc(-c2ccncc2)nc2c(=O)n(C)c(=O)nc1-2", "=", 5.24],
  ["C[n+]1cc2c3c(ccc2c2ccc4cc5c(cc4c21)OCO5)OCO3 [SANGUINARIUM]", "=", 6.05],
  ["Cc1c2cc3c(ccc4ccccc43)oc-2nc(=O)c1C#N", "<", 3.52],
  ["Cn1nc(-c2ccc([N+](=O)[O-])cc2)nc2c(=O)n(C)c(=O)nc1-2", "=", 5.54],
  ["CCn1cc(C(=O)O)c(=O)c2cc(F)c(N3CCNCC3)cc21 [NORFLOXACIN]", "<", 3.52],
  ["CC1=C(C)C(=O)c2ccccc2C1=O", "=", 4.64],
  ["COc1ccc(-c2nc3c(=O)n(C)c(=O)nc-3n(C)n2)cc1", "=", 5.22]
]}

====

- ASSAY INFO: Cytotoxicity against human THLE cells assessed as ATP depletion after 4 hrs by CellTitre-Glo assay
- Type: functional, cell-based
Items are presented alongside their recorded EC50.
PROPERTY NAME: EC50

{"columns": ["SMILES RECORD", "PROPERTY NAME", "RESULT"],
 "data": [
  ["O=c1[nH]c(=O)c2nc3ccccc3nc2[nH]1", "EC50", "> 300 µM"],
  ["O=c1[nH]c(=O)c2nccnc2[nH]1", "EC50", "> 300 µM"],
  ["C[n+]1ccc(-c2cc[n+](C)cc2)cc1", "EC50", "> 300 µM"]
]}

====

Items are presented alongside their recorded pEC50.
- ASSAY INFO: Cytotoxicity against human THLE cells assessed as ATP depletion after 24 hrs by CellTitre-Glo assay
- Assay type: functional, cell-based
pEC50: −log10 of the molar value.
PROPERTY NAME: pEC50

{"columns": ["MOLECULE", "PROPERTY NAME", "RELATION SIGN", "RESULT"],
 "data": [
  ["Cn1nc(-c2ccccc2)cc2c(=O)n(C)c(=O)nc1-2", "pEC50", "<", 3.52],
  ["Cn1nc(-c2cccnc2)nc2c(=O)n(C)c(=O)nc1-2", "pEC50", "=", 5.68],
  ["Cc1cc(C)n(C)c2cccc(=O)c1-2", "pEC50", "<", 3.52],
  ["Cn1c(=O)nc2sc3ccccc3nc-2c1=O", "pEC50", "=", 5.00],
  ["COc1cccc2c1C(=O)c1c(O)c3c(c(O)c1C2=O)C[C@@](O)(C(=O)CO)C[C@@H]3O[C@H]1C[C@H](N)[C@H](O)[C@H](C)O1", "pEC50", "=", 5.74],
  ["Cn1nc(-c2ccccc2)nc2c(=O)n(C)c(=O)nc1-2", "pEC50", "=", 5.35],
  ["Cn1ncnc2c(=O)n(C)c(=O)nc1-2", "pEC50", "=", 5.68],
  ["CCCc1nc2c(=O)n(C)c(=O)nc-2n(C)n1", "pEC50", "=", 5.04],
  ["O=c1[nH]c(=O)c2nc3ccccc3nc2[nH]1", "pEC50", "<", 3.52],
  ["Cn1nc(/C=C\\c2ccccc2)nc2c(=O)n(C)c(=O)nc1-2", "pEC50", "=", 5.23],
  ["Cc1cc2nc3c(=O)[nH]c(=O)nc-3n(C[C@H](O)[C@H](O)[C@H](O)CO)c2cc1C", "pEC50", "<", 3.52],
  ["C[n+]1ccc(-c2cc[n+](C)cc2)cc1", "pEC50", "<", 3.52],
  ["CC1=CC(=O)c2ccccc2C1=O", "pEC50", "=", 4.56],
  ["NC(=O)N1C(=O)/C(=C(\\O)c2ccc(F)s2)c2cc(F)c(Cl)cc21", "pEC50", "=", 3.76],
  ["O=C1NC(=O)/C(=C\\c2ccccc2)C2=C1CCCC2 [TESIMIDE]", "pEC50", "<", 3.52],
  ["CCn1cc(C(=O)O)c(=O)c2ccc(C)nc21", "pEC50", "<", 3.52],
  ["O=C1C=C(Cl)C(=O)c2ccccc21", "pEC50", "=", 4.86],
  ["O=c1[nH]c(=O)c2nccnc2[nH]1", "pEC50", "<", 3.52],
  ["O=C1NC(=O)/C(=C\\c2ccccc2)C2=C1CCC2", "pEC50", "<", 3.52]
]}

These entries and their values trace back to ChEMBL document CHEMBL3132807.
